Each recorded value in this set is attributed to paper PMC11359831.

Measured LC50 at 72 h, listed per entry for reference.
# experimentNotes: Fish embryo acute toxicity (FET) test in zebrafish embryos
# Type: in vivo
# details: in vivo, other: embryos exposed by immersion in the test solution, pH 7.4, 72 h of exposure, read-out: LC50 (CI95)

Consider the worked cases shown below.
{"columns": ["compound", "reportedMeasurement"],
 "data": [
  ["CC(=O)c1cccc(C(=O)NCCCCCCCCCNc2c3c(nc4cc(Cl)ccc24)CC2C=C(C)CC3C2)c1 (centres unmarked)", "> 100 µM"],
  ["CC1=CC2Cc3nc4cc(Cl)ccc4c(NCCCCCCCCCNC(=O)c4ccc5c(c4)C(=O)c4ccccc4C5=O)c3C(C1)C2 (centres unmarked)", "> 100 µM"],
  ["CC1=CC2Cc3nc4cc(Cl)ccc4c(NCCCCCCCCCNC(=O)c4ccc5c(c4)C(=O)c4ccccc4-5)c3C(C1)C2 (centres unmarked)", "> 100 µM"],
  ["CC1=CC2Cc3nc4cc(Cl)ccc4c(NCCCCCCCCCNC(=O)c4cc(O)c5c(c4)C(=O)c4cccc(O)c4C5=O)c3C(C1)C2 (centres unmarked)", "> 100 µM"]
]}

// moving on: another record for LC50 at 72 h
Give LC50 at 72 h for the following compound: CC1=CC2Cc3nc4cc(Cl)ccc4c(NCCCCCCCCCNC(=O)c4cccc(C(=O)c5ccccc5)c4)c3C(C1)C2 (centres unmarked)
40.1 µM

---

# experimentNotes: physchem
# details: PBS (99%) with DMSO (1%), 37 °C, aqueous buffer, kinetic from dmso stock, Solubility, kinetic solubility, 2 h, DMSO (1%)/PBS (99%)
Kindly return class 1 if reported solubility at 2 h is no lower than 6 µg/mL; return class 0 if it is lower.

{"columns": ["molecule", "class"],
 "data": [
  ["CC(=O)c1cccc(C(=O)NCCCCCCCCCNc2c3c(nc4cc(Cl)ccc24)CC2C=C(C)CC3C2)c1 (centres unmarked)", "class 1"],
  ["CC1=CC2Cc3nc4cc(Cl)ccc4c(NCCCCCCCCCNC(=O)c4cc(O)c5c(c4)C(=O)c4cccc(O)c4C5=O)c3C(C1)C2 (centres unmarked)", "class 1"],
  ["CC1=CC2Cc3nc4cc(Cl)ccc4c(NCCCCCCCCCNC(=O)c4ccc5c(c4)C(=O)c4ccccc4-5)c3C(C1)C2 (centres unmarked)", "class 0"]
]}

Switching to the query record.
Does solubility at 2 h meet or surpass 6 µg/mL for CC1=CC2Cc3nc4cc(Cl)ccc4c(NCCCCCCCCCNC(=O)c4cccc(C(=O)c5ccccc5)c4)c3C(C1)C2 (centres unmarked) ?
class 1

---

# experimentNotes: Plasma stability, mouse plasma
# Assay type: in vitro ADME
# details: 37 °C, 6 h, read-out: Plasma Stability % Remaining Compound, mouse, 6 h
Just a reminder that ties go to No: only remaining at 6 h, 5 μM strictly below 90% counts as Yes.

{"columns": ["molecule", "class"],
 "data": [
  ["CC1=CC2Cc3nc4cc(Cl)ccc4c(NCCCCCCCCCNC(=O)c4cc(O)c5c(c4)C(=O)c4cccc(O)c4C5=O)c3C(C1)C2 (centres unmarked)", "No"]
]}

Determine if CC(=O)c1cccc(C(=O)NCCCCCCCCCNc2c3c(nc4cc(Cl)ccc24)CC2C=C(C)CC3C2)c1 (centres unmarked) shows remaining at 6 h, 5 μM strictly lower than 90%.
No

Item CC1=CC2Cc3nc4cc(Cl)ccc4c(NCCCCCCCCCNC(=O)c4cccc(C(=O)c5ccccc5)c4)c3C(C1)C2 (centres unmarked) : remaining at 6 h, 5 μM beneath 90%, strictly?
Yes

---

Entries and their measured Papp follow.
# experimentNotes: in vitro
# details: PAMPA, Brain Permeability Pe, PAMPA-BBB; mean ± SD
All answers are understood in ×10⁻⁶ cm/s, so give the number only.

{"columns": ["compound", "reportedMeasurement"],
 "data": [
  ["CC1=CC2Cc3nc4cc(Cl)ccc4c(NCCCCCCCCCNC(=O)c4cccc(C(=O)c5ccccc5)c4)c3C(C1)C2 (stereo not shown)", 7.4],
  ["CC1=CC2Cc3nc4cc(Cl)ccc4c(NCCCCCCCCCNC(=O)c4ccc5c(c4)C(=O)c4ccccc4C5=O)c3C(C1)C2 (stereo not shown)", 9.2],
  ["CC(=O)c1cccc(C(=O)NCCCCCCCCCNc2c3c(nc4cc(Cl)ccc24)CC2C=C(C)CC3C2)c1 (stereo not shown)", 16.5]
]}

Now look at this one.
Check the records and state Papp for CC1=CC2Cc3nc4cc(Cl)ccc4c(NCCCCCCCCCNC(=O)c4ccc5c(c4)C(=O)c4ccccc4-5)c3C(C1)C2 (stereo not shown)
6.2

---

# experimentNotes: physchem
# details: PBS (99%) with DMSO (1%), 37 °C, aqueous buffer, kinetic from dmso stock, Solubility, kinetic solubility, 2 h, PBS with 1% DMSO, nephelometry
Collected solubility at 2 h values appear next to each entry.
Number only, in µM; omit the unit.

In the examples that follow, each entry is paired with its recorded solubility at 2 h.
{"columns": ["compound", "unitAbbrev", "solubility at 2 h"],
 "data": [
  ["CC1=CC2Cc3nc4cc(Cl)ccc4c(NCCCCCCCCCNC(=O)c4ccc5c(c4)C(=O)c4ccccc4C5=O)c3C(C1)C2 (centres unmarked)", "µM", 8.4],
  ["CC1=CC2Cc3nc4cc(Cl)ccc4c(NCCCCCCCCCNC(=O)c4cccc(C(=O)c5ccccc5)c4)c3C(C1)C2 (centres unmarked)", "µM", 12.5],
  ["CC(=O)c1cccc(C(=O)NCCCCCCCCCNc2c3c(nc4cc(Cl)ccc24)CC2C=C(C)CC3C2)c1 (centres unmarked)", "µM", 18],
  ["CC1=CC2Cc3nc4cc(Cl)ccc4c(NCCCCCCCCCNC(=O)c4ccc5c(c4)C(=O)c4ccccc4-5)c3C(C1)C2 (centres unmarked)", "µM", 8.1]
]}

// Input: CC1=CC2Cc3nc4cc(Cl)ccc4c(NCCCCCCCCCNC(=O)c4cc(O)c5c(c4)C(=O)c4cccc(O)c4C5=O)c3C(C1)C2 (centres unmarked) . Output its solubility at 2 h only.
8.6

---

# experimentNotes: Plasma stability, human plasma
# Assay type: in vitro ADME
# details: 37 °C, 1 h, 5 μM, read-out: Plasma Stability % Remaining Compound, human, 1 h
Attribute: remaining at 1 h, 5 μM
Field format: number, assumed %, no unit text.

// below: answered compounds
{"columns": ["compound", "unitAbbrev", "reportedMeasurement"],
 "data": [
  ["CC1=CC2Cc3nc4cc(Cl)ccc4c(NCCCCCCCCCNC(=O)c4cccc(C(=O)c5ccccc5)c4)c3C(C1)C2 (centres unmarked)", "%", 100],
  ["CC1=CC2Cc3nc4cc(Cl)ccc4c(NCCCCCCCCCNC(=O)c4cc(O)c5c(c4)C(=O)c4cccc(O)c4C5=O)c3C(C1)C2 (centres unmarked)", "%", 100],
  ["CC(=O)c1cccc(C(=O)NCCCCCCCCCNc2c3c(nc4cc(Cl)ccc24)CC2C=C(C)CC3C2)c1 (centres unmarked)", "%", 100],
  ["CC1=CC2Cc3nc4cc(Cl)ccc4c(NCCCCCCCCCNC(=O)c4ccc5c(c4)C(=O)c4ccccc4C5=O)c3C(C1)C2 (centres unmarked)", "%", 94.2]
]}

We next turn to a different compound, shown below.
// fetch remaining at 1 h, 5 μM given entry CC1=CC2Cc3nc4cc(Cl)ccc4c(NCCCCCCCCCNC(=O)c4ccc5c(c4)C(=O)c4ccccc4-5)c3C(C1)C2 (centres unmarked)
88.5

---

In this section, each of the compounds is paired with its reported IC50.
# targetOrSystem: human recombinant AChE (hAChE) (Homo sapiens, UniProt P22303)
# Sequence (P22303 32-614): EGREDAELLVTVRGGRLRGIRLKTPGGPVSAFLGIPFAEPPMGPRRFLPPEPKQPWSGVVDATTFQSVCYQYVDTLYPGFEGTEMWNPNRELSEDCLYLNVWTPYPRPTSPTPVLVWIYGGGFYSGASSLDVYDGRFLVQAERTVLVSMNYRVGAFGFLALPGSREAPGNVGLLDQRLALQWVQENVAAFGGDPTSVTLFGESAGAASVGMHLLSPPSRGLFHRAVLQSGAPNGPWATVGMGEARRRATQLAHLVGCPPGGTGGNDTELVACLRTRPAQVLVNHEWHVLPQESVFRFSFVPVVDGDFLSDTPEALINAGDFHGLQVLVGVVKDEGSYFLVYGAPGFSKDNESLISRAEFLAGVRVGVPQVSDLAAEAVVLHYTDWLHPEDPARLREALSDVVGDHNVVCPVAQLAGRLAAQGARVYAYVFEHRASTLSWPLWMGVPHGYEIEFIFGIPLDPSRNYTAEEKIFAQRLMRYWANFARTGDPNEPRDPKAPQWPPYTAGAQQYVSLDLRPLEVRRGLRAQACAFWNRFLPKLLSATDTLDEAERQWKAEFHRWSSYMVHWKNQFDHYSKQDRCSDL
# experimentNotes: biochemical
# details: human recombinant AChE; Ellman method; mean ± standard error
Give the value in nM but do not write nM after it.

Please review the entries below; each comes with its answer.
{"columns": ["compound", "unitAbbrev", "reportedMeasurement"],
 "data": [
  ["CC1=CC2Cc3nc4cc(Cl)ccc4c(NCCCCCCCCCNC(=O)c4ccc5c(c4)C(=O)c4ccccc4C5=O)c3C(C1)C2 (stereo not drawn)", "nM", 6.91],
  ["CC1=CC2Cc3nc4cc(Cl)ccc4c(NCCCCCCCCCNC(=O)c4cccc(C(=O)c5ccccc5)c4)c3C(C1)C2 (stereo not drawn)", "nM", 11.6]
]}

Supply measured IC50 of CC1=CC2Cc3nc4cc(Cl)ccc4c(NCCCCCCCCCNC(=O)c4ccc5c(c4)C(=O)c4ccccc4-5)c3C(C1)C2 (stereo not drawn) in your reply.
5.93
